Assay: AR reductase activity, NAD(P)H oxidation at 340 nm
Type: biochemical
Settings: 10 mM; ND = no activity was detected
Method: Enzyme activity of purified ARs was measured spectrophotometrically in 96-well plates Reaction mixtures contained 100 mM HEPES buffer (pH 7.5), 0.4 mM NADH/NADPH, 10 mM adipaldehyde or butylaldehyde, and proteins (10 μg for adipaldehyde screen, 2 μg for butyraldehyde screen) in a final volume of 200 μL Reaction mixture for adipaldehyde screening contained 1.8% DMSO. […]
READOUT_LABEL: Activity [U/mg protein] Butyraldehyde (U/mg protein)

- MOLECULE: "PA2918: aldehyde reductase (AR) from Pseudomonas aeruginosa (protein) MVDHSIKGKTVLITGGAKNLGGLIARDLAAHGAKAITIHYNSAASKADADATVAALQAAGAKAVALQGDLTSAAAMEKLFADAIAAVGKPDIAINTVGKVLKKPITEISETEYDEMSAVNSKSAFFFLREAGKHVNDNGKICTLVTSLLGAYTPYYAAYAGTKAPVEHFTRAASKEFGARGISVTAVGPGPMDTPFFYPAEGADAVDYLKNAAALSPFSKTGLTDIDDVVPFIRHLVSEGWWITGQTILINGGFSTK"
  READOUT_NUMBER: 0.137
